B1: Aspartate aminotransferase, P00509 (parent)
chain: MFENITAAPADPILGLADLFRADERPGKINLGIGVYKDETGKTPVLTSVKKAEQYLLENETTKNYLGIDGIPEFGRCTQELLFGKGSALINDKRARTAQTPGGTGALRVAADFLAKNTSVKRVWVSNPSWPNHKSVFNSAGLEVREYAYYDAENHTLDFDALINSLNEAQAGDVVLFHGCCHNPTGIDPTLEQWQTLAQLSVEKGWLPLFDFAYQGFARGLEEDAEGLRAFAAMHKELIVASSYSKNFGLYNERVGACTLVAADSETVDRAFSQMKAAIRANYSNPPAHGASVVATILSNDALRAIWEQELTDMRQRIQRMRQLFVNTLQEKGANRDFSFIIKQNGMFSFSGLTKEQVLRLREEFGVYAVASGRVNVAGMTPDNMAPLCEAIVAVL

Variants of: B1
Settings: Escherichia coli (strain K12); pH 7.5; 25 °C; Urea; Fluorescence; Potassium phosphate 20 mM; reversible: Yes; structure 1AMQ; whole UniProt chain shown
List of ddG of mutation (higher = less stable) values.
Enter your answer as a number in kcal/mol; do not include the unit.

Before answering, review these 3 worked examples.
[
  {
    "Change": "K63E",
    "Result Units": "kcal/mol",
    "ddG of mutation (higher = less stable)": 4.5
  },
  {
    "Change": "N282D",
    "Result Units": "kcal/mol",
    "ddG of mutation (higher = less stable)": -0.8
  },
  {
    "Change": "T6A",
    "Result Units": "kcal/mol",
    "ddG of mutation (higher = less stable)": 1.3
  }
]

Task item: Which ddG of mutation (higher = less stable) value is on record for `N282R` ?
Reply: 2.6
